Target: Fes (UniProt P07332)
Sequence (P07332 whole entry, looked up): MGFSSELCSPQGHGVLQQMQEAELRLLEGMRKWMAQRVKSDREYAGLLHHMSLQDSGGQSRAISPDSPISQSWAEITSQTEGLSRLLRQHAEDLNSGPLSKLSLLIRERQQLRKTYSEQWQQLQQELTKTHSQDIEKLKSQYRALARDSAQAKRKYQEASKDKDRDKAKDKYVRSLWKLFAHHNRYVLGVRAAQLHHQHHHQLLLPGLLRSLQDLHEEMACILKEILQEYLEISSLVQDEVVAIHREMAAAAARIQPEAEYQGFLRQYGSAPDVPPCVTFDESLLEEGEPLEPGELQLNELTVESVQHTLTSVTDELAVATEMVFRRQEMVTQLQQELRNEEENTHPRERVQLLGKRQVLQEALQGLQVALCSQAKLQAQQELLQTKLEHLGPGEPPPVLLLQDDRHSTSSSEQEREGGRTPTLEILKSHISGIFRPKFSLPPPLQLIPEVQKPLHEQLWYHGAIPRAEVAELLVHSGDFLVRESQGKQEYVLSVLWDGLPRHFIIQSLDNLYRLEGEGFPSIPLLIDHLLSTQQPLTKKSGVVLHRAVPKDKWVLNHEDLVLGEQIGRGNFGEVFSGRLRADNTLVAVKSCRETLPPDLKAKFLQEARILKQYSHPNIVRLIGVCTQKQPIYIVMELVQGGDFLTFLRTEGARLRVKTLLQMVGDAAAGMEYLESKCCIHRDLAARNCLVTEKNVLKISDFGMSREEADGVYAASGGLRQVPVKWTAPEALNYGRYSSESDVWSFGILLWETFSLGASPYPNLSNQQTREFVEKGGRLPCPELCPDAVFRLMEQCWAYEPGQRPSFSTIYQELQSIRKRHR
Test: phosphorylation enrichment, bacterial display (enrichment ratio); higher = better substrate or ligand; peptides without Tyr show the background;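 note: 11-residue human phosphosite peptides and single-mutation variants displayed on the E. coli surface, counted by deep sequencing, each peptide's frequency after selection divided by its frequency in the unselected input library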;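 note: frequency after pTyr selection over input frequency; kinase dosed for 20-30% of maximal phosphorylation in three min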
measure: phosphorylation enrichment
Answer using only a numeral; do not append any unit.

> print(dat)
                      sequence.code  reported.measurement
1          SIKDKYVTALY [KCNH2_Y611]                  0.72
2    CNPRRYPVLMS [OR2T1_Y182_L180R]                 0.833
3       AHAGGYGAEAL [HBA1_Y25_E24G]                 0.665
4    DPLASYLDKVR [KRT10_Y160_R156P]                 0.744
5  TFQFKYPEGSS [TGM4_Y440_E437Q_YF]                 0.943

Tell me reported phosphorylation enrichment for EPSLDYMVTKI [CPS1_Y768] , tested with Fes (UniProt P07332). 1.14

Likewise for RMDGTYACSYT [FLNB_Y704] ? 1.02

Likewise for VFAPDFIAGVS [NOB1_Y366_Y366F] ? 1.02
